System: HOP-62 NSCLC
Test: NCI-60 one-dose screen, 48 h
Details: 10 µM
The panel holds about 83,000 compounds, 20% with a hit somewhere; the sample as a whole holds those more often. The source made the active and inactive calls. Rule for the calls: active = growth percent below 10; inactive = the rest.
Classes used: true (1) = active, false (0) = inactive

{"columns": ["molecule", "group"],
 "data": [
  ["Cc1ccc(Cl)cc1Nc1nc(C(F)(F)F)ccc1C(=O)N/N=C/c1c(Cl)cccc1Cl", "true (1)"],
  ["CC(=O)c1c(O)cc2c3c1OC(C)(C)C1CCC(C)(CC31)O2 (stereo not given)", "false (0)"],
  ["COCc1cc2c(cc1Br)OCO2", "false (0)"],
  ["CCN(Cc1ccccc1)C1CCN(Cc2cc(Br)ccc2O)CC1", "false (0)"],
  ["Cc1ccc(/C=C2\\CN(Cc3cn(CCNc4ccnc5cc(Cl)ccc45)nn3)C/C(=C\\c3ccc(C)cc3)C2=O)cc1", "true (1)"]
]}

###

System: KM12 colon
Experiment: NCI-60 one-dose screen, 48 h (100 = growth as untreated, 0 = no growth, -100 = all killed)
Conditions: 10 µM
The panel holds about 83,000 compounds, 20% with a hit somewhere; the sample as a whole holds those more often.
reported-property: growth (%)

{"columns": ["compound", "reported-property", "unit-text", "observed"],
 "data": [
  ["C/C(=N\\NC(N)=S)C(C)(C)O", "growth", "%", 99.7],
  ["Cc1[nH]nc2c(=S)[nH]c(=O)[nH]c12", "growth", "%", 107],
  ["CCOc1ccc(-n2cc(-c3ccc(N(C)C)cc3)[n+]3c2CCCCC3)cc1", "growth", "%", 14.3],
  ["Cc1cc(C)c(C(=O)OC(C)CNC2CCCCC2)c(C)c1 (stereo unspecified)", "growth", "%", 98.2],
  ["CCc1ccc(-c2nnc(COc3ccc(-c4nc5ccc(C)cc5[nH]4)cc3OC)o2)cc1", "growth", "%", 50.9],
  ["CCc1nn2c(-c3cc(OC)c(OC)c(OC)c3)c(-c3cc(OC)c(OC)c(OC)c3)nc2s1", "growth", "%", 100]
]}

###

Tested on: HS 578T breast
Assay: NCI-60 one-dose screen, 48 h
Conditions: 10 µM
The panel holds about 83,000 compounds, 20% with a hit somewhere; the sample as a whole holds those more often. Active and inactive are the calls of the source. The calls were made as follows: active = growth percent below 10; inactive = the rest.
Classes used: TRUE for active, FALSE for inactive

{"columns": ["compound", "group"],
 "data": [
  ["C=CCOc1ccc2c(c1)CC[C@@H]1[C@@H]2CC[C@]2(C)C(=O)/C(=N/O)C[C@@H]12", "FALSE"],
  ["CCC(O)c1ccc(Br)cc1NC(=O)c1cccc(Cl)c1 (stereo unspecified)", "FALSE"],
  ["COc1cc2c3c(cccc3c1)C(=O)N(CCN1CCCC1)C2=O", "FALSE"],
  ["Nc1ccccc1NC(=O)CCCCCCC(=O)Nc1ccc2c(c1)/C(=C/c1ccc[nH]1)C(=O)N2", "FALSE"],
  ["N#CN1CC[C@H](C(=O)Nc2ncc(-c3ccccc3)s2)C1", "TRUE"],
  ["Clc1ccc(-c2nc(-c3cccs3)cn3ccnc23)cc1", "FALSE"],
  ["Oc1ccc(/C=N\\Nc2ccccn2)c(O)c1", "FALSE"],
  ["CCOC(=O)C(=O)Cc1cccnn1", "FALSE"],
  ["COc1ccc(-c2nc(-c3ccccc3)c(-c3ccccc3)[nH]2)cc1OC1CCCC1", "FALSE"],
  ["CC1(C)Cc2c(cn(Cc3ccccc3)c2-c2ccccc2)-c2oncc21", "FALSE"],
  ["COc1cc(Cn2c(-c3ccccc3)c(Cl)c3c2-c2oncc2CC3)cc(OC)c1", "FALSE"]
]}
